MEASUREMENT TARGET: CDK2 (Homo sapiens, UniProt P24941)
Construct: endogenous in cells; host or cells: MKN1 cells
ASSAY REMARKS: CDK2 degradation in MKN1 cells (AlphaLISA)
Assay type: cell-based
MEASUREMENT PARAMETERS: 14 h incubation
MEASURED QUANTITY: CDK2 degradation 14 h: Average Dmax %

- COMPOUND: "Cc1cc(S(=O)(=O)NC2CCN(CC3CCN(c4ccc(C5CCC(=O)NC5=O)cc4F)CC3)CC2F)ccc1Nc1ncc(C(F)(F)F)c(N2CCCC(C)(O)C2)n1 (centres unmarked) [I-1055]"
  OBS VALUE: "A (A (>75% o))"
- COMPOUND: "Cc1cc(S(=O)(=O)NC2CCC(CN3CCN(c4cccc5c4n(C)c(=O)n5C4CCC(=O)NC4=O)CC3)CC2)ccc1Nc1ncc(C(F)(F)F)c(N2CCCC(C)(O)C2)n1 (centres unmarked)"
  OBS VALUE: "A (A (>75% o))"
- COMPOUND: "Cc1cc(S(=O)(=O)NC2CCC(CN3CCN(c4ccc5c(c4)n(C4CC4)c(=O)n5C4CCC(=O)NC4=O)CC3)CC2)ccc1Nc1ncc2c(n1)N(C1CCCC(O)C1)C(=O)C21CC1 (centres unmarked)"
  OBS VALUE: "A (A (>75% o))"
